Sourced from a collection of fitness landscapes (doi:10.1126/science.1257360)

B1: PhoQ; a variant is named by its letters at X, in order, P23837 (parent)
chain: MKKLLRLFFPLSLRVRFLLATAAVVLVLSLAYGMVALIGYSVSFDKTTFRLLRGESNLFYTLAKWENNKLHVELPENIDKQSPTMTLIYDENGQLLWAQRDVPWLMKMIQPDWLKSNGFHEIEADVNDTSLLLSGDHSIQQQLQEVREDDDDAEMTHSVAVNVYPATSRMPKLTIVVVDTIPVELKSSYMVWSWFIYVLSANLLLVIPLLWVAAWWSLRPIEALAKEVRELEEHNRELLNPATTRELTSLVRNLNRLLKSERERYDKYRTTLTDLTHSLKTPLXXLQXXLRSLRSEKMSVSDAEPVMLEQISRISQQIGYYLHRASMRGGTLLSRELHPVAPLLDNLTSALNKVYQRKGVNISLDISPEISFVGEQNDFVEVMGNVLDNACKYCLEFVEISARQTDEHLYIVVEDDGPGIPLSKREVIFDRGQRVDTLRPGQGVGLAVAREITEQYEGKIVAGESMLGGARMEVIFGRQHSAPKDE

Variants of: B1
EXPERIMENT_SUMMARY: enrichment ratio after two sorts for PhoP signalling (ratio (wild type AVST 3.29)); higher = more functional
DETAILS: with PhoP (E. coli)
The full ranking holds about 140,000 sequences; the median of “enrichment ratio after two sorts for PhoP signalling” is about 0, and the highest 2% start at about 11. What follows is part of a selection rich in the highest values, with near analogues and random picks from the rest.
METRIC: enrichment ratio

Previously resolved entries follow.
> print(dat)
   mutation.spec            metric  endpoint.result
1           TSTT  enrichment ratio             15.1
2           EHKW  enrichment ratio           ≤ 0.25
3           ICTT  enrichment ratio             11.9
4           INSM  enrichment ratio            0.298
5           AHLI  enrichment ratio             4.17

Quick one: enrichment ratio for `DVPV` ?
≤ 0.25

Quick one: enrichment ratio for `MKWE` ?
≤ 0.25

Quick one: enrichment ratio for `PLHT` ?
≤ 0.25

Quick one: enrichment ratio for `KSTT` ?
≤ 0.25

Quick one: enrichment ratio for `SECN` ?
23.5

Quick one: enrichment ratio for `FCTT` ?
≤ 0.25

Quick one: enrichment ratio for `LFRE` ?
≤ 0.25

Quick one: enrichment ratio for `PWPK` ?
≤ 0.25

Quick one: enrichment ratio for `MMTT` ?
≤ 0.25

Quick one: enrichment ratio for `VYSV` ?
≤ 0.25
